Property: pIC50; scope: individual molecules
system tested: HLA-DR4 (DRB1*0401) molecules (Homo sapiens, UniProt P01903+P01911, A100K/A169T/F76Y/I96L/K127E/L162R/M171V/N62H/P40V/Q125Y/R42H/S133A/S149N/S66Y/V115G/V209L/W38E)
procedure summary: Competitive binding assay with recombinant water-soluble HLA-DR4
condition context: Affinity for HLA-DR4 (DRB1*0401) molecules determined by competition with biotinylated competitor HA 306-318, biotinylated competitor HA306-318
pIC50: −log10 of the molar value. Residues, ends and D or L forms follow the SMILES beside them.
readout: pIC50

molecule | readout | measurement qualifier | measurement
C[C@H](N)C(=O)N[C@@H](CCCCN)C(=O)N[C@@H](Cc1ccc(O)cc1)C(=O)N[C@@H](C)C(=O)N[C@@H](CCC(=O)O)C(=O)N[C@@H](C)C(=O)N[C@@H](C)C(=O)N[C@@H](C)C(=O)N[C@@H](C)C(=O)N[C@@H](C)C(=O)N[C@@H](C)C(=O)N[C@@H](C)C(=O)N[C@@H](C)C(=O)N[C@@H](C)C(=O)N[C@@H](C)C(=O)O [compound 36] | pIC50 | = | 5.52
C[C@H](NC(=O)[C@H](C)NC(=O)[C@H](C)NC(=O)[C@H](C)NC(=O)[C@H](CCCCN)NC(=O)[C@H](C)NC(=O)[C@H](C)NC(=O)[C@H](C)NC(=O)[C@H](C)NC(=O)[C@H](C)NC(=O)[C@H](C)NC(=O)[C@H](Cc1ccc(O)cc1)NC(=O)[C@H](C)NC(=O)[C@H](C)NC(=O)[C@@H](N)CCC(=O)O)C(=O)O [compound 16] (H-EAAYAAAAAAKAAAA-OH) | pIC50 | = | 5.30
C[C@H](N)C(=O)N[C@@H](Cc1ccc(O)cc1)C(=O)N[C@@H](CCCCN)C(=O)N[C@@H](C)C(=O)N[C@@H](CCC(=O)O)C(=O)N[C@@H](C)C(=O)N[C@@H](C)C(=O)N[C@@H](C)C(=O)N[C@@H](C)C(=O)N[C@@H](C)C(=O)N[C@@H](C)C(=O)N[C@@H](C)C(=O)N[C@@H](C)C(=O)N[C@@H](C)C(=O)N[C@@H](C)C(=O)O [compound 35] | pIC50 | = | 5.89
C[C@H](N)C(=O)N[C@@H](C)C(=O)N[C@@H](C)C(=O)N[C@@H](Cc1ccc(O)cc1)C(=O)N[C@@H](C)C(=O)N[C@@H](C)C(=O)N[C@@H](C)C(=O)N[C@@H](C)C(=O)N[C@@H](C)C(=O)N[C@@H](C)C(=O)N[C@@H](CCCCN)C(=O)N[C@@H](C)C(=O)N[C@@H](C)C(=O)N[C@@H](C)C(=O)N[C@@H](C)C(=O)O [compound 5] (H-AAAYAAAAAAKAAAA-OH) | pIC50 | = | 5.15
C[C@H](N)C(=O)N[C@@H](CCC(=O)O)C(=O)N[C@@H](CCCCN)C(=O)N[C@@H](C)C(=O)N[C@@H](Cc1ccc(O)cc1)C(=O)N[C@@H](C)C(=O)N[C@@H](C)C(=O)N[C@@H](C)C(=O)N[C@@H](C)C(=O)N[C@@H](C)C(=O)N[C@@H](C)C(=O)N[C@@H](C)C(=O)N[C@@H](C)C(=O)N[C@@H](C)C(=O)N[C@@H](C)C(=O)O [compound 33] | pIC50 | > | 6.00
CC(C)C[C@H](NC(=O)[C@H](CCCCN)NC(=O)[C@H](CC(C)C)NC(=O)[C@@H](NC(=O)[C@H](CC(N)=O)NC(=O)[C@H](CCC(N)=O)NC(=O)[C@H](CCCCN)NC(=O)[C@@H](NC(=O)[C@H](Cc1ccc(O)cc1)NC(=O)[C@H](CCCCN)NC(=O)[C@@H]1CCCN1C(=O)[C@H](C)N)C(C)C)[C@@H](C)O)C(=O)N[C@@H](C)C(=O)N[C@H](C(=O)N[C@@H](C)C(=O)O)[C@@H](C)O [compound 4] | pIC50 | = | 4.59

// provenance: patent US9066905B2
